# Measured target: PI3Kα (p110α/p85α) (Homo sapiens, UniProt P42336)
# Construct: GST (N)
# Sequence (P42336 whole entry): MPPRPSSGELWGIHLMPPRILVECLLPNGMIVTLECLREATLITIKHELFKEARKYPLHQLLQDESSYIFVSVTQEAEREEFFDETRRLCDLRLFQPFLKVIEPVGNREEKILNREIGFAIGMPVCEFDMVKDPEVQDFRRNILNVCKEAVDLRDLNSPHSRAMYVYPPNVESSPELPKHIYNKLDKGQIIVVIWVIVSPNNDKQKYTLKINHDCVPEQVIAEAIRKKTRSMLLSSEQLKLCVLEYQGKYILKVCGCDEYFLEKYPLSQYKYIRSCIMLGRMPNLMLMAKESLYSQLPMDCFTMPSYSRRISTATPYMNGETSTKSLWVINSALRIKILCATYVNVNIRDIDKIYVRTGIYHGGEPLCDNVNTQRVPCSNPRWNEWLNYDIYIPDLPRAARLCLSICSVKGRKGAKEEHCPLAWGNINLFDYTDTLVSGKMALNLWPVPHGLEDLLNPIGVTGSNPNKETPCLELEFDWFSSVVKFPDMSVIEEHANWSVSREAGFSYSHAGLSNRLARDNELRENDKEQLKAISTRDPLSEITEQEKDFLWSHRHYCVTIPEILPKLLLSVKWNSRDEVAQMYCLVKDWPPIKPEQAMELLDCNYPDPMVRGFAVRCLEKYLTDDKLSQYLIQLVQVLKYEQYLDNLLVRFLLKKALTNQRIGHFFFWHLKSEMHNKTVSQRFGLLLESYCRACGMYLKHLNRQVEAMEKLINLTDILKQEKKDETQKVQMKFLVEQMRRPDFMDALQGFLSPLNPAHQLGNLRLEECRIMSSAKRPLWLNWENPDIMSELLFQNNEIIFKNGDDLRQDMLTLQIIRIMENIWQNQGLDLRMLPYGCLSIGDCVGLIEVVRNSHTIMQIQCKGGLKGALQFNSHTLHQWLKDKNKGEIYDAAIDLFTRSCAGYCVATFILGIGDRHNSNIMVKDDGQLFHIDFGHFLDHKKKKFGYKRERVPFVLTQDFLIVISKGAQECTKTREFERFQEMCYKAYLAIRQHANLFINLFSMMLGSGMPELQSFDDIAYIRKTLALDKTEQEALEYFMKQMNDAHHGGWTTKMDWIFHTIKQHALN
# Sequence (P27986 whole entry partner): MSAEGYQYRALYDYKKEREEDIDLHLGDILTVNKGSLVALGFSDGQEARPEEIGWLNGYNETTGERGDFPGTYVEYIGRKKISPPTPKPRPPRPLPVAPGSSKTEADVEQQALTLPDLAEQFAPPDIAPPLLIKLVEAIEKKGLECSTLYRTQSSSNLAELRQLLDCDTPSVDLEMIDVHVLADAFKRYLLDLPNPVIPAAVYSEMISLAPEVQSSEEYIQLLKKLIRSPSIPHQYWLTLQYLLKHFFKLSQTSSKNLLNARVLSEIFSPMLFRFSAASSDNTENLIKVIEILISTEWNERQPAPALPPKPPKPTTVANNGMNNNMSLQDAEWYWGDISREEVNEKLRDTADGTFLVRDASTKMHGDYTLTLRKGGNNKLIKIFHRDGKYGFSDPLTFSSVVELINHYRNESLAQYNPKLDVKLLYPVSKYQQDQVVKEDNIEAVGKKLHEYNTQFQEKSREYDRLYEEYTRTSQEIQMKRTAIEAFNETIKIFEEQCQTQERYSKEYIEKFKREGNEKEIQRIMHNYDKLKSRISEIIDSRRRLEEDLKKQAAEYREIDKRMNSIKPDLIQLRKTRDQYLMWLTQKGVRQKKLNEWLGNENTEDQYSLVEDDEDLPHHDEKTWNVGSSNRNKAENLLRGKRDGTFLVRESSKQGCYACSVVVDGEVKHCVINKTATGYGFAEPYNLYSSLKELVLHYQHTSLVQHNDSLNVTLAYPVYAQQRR
# Experiment: PI3Kα ADP-Glo assay
# Assay setup: 20 μM PIP2, 10 μM ATP, 30 minutes
IC50 for assorted molecules

In the examples that follow, each entry is paired with its recorded IC50.
INSERT INTO measurements (chem_smiles, measured_target, value_measured) VALUES
  ('COc1ccc(-c2nc(N3CCOCC3)c3sc(Nc4ncc(C(=O)NO)cn4)cc3n2)cn1', 'PI3Kα (p110α/p85α) (Homo sapiens, UniProt P42336)', '< 100 nM'),
  ('CN(Cc1cc2nc(-c3ccc(N)cc3Cl)nc(N3CCOCC3)c2s1)c1ncc(C(=O)NO)cn1', 'PI3Kα (p110α/p85α) (Homo sapiens, UniProt P42336)', '< 100 nM');

Task: # return recorded IC50 for entry `O=C(NO)c1cc2nc(-c3cccc4[nH]ncc34)nc(N3CCOCC3)c2s1`
Result: < 100 nM

Task: # return recorded IC50 for entry `CS(=O)(=O)N1CCN(Cc2cc3nc(-c4ccc(OCCCCC(=O)NO)cc4)nc(N4CCOCC4)c3s2)CC1`
Result: 100 to 1000 nM

Task: # return recorded IC50 for entry `CN(Cc1cc2nc(-c3cccc(C(N)=O)c3)nc(N3CCOCC3)c2s1)c1ncc(C(=O)NO)cn1`
Result: 100 to 1000 nM

Task: # return recorded IC50 for entry `CN(Cc1cc2nc(-c3ccc(N)c(O)c3)nc(N3CCOCC3)c2s1)c1ncc(C(=O)NO)cn1`
Result: < 100 nM

Task: # return recorded IC50 for entry `CS(=O)(=O)N1CCN(Cc2cc3nc(-c4ccc(OCCCCCCC(=O)NO)cc4)nc(N4CCOCC4)c3s2)CC1`
Result: 100 to 1000 nM

Task: # return recorded IC50 for entry `CCNc1ccc(-c2nc(N3CCOCC3)c3sc(CN(C)c4ncc(C(=O)NO)cn4)cc3n2)cc1`
Result: > 10000 nM

Task: # return recorded IC50 for entry `CN(C)c1ncc(-c2nc(N3CCOCC3)c3sc(CN(C)c4ncc(C(=O)NO)cn4)cc3n2)cn1`
Result: < 100 nM

Task: # return recorded IC50 for entry `CS(=O)(=O)N1CCN(Cc2cc3nc(-c4cccc5[nH]ncc45)nc(NCCCCCCC(=O)NO)c3s2)CC1`
Result: > 10000 nM
